Tested on: OVCAR-4 ovarian
RUN DESCRIPTION: NCI tumour cell line growth inhibition, 48 h; in the data active means GI50 below about 0.43 µM; inactive means the rest
Returns: one label drawn from TRUE = active, FALSE = inactive

Worked set:
{"columns": ["MOLECULE", "STUDY SYSTEM", "ASSIGNED CLASS"],
 "data": [
  ["Oc1c(O)c(Cl)c(Cl)c(Cl)c1Cl", "OVCAR-4 ovarian", "FALSE"],
  ["COc1ccc(-c2n[nH]nc2-c2cc(OC)c3c(c2)OCO3)cc1", "OVCAR-4 ovarian", "FALSE"],
  ["COc1ccc(-c2nn3ncccc3c2-c2ccnc(Nc3ccc4c(c3)OCCO4)n2)cc1", "OVCAR-4 ovarian", "FALSE"],
  ["CCC[CH2][Sn]([CH2]CCC)([CH2]CCC)[O]C(=O)C(OC)c1ccccc1 (centres undefined)", "OVCAR-4 ovarian", "TRUE"],
  ["C=C(CN1c2ccccc2Sc2ccccc21)c1ccc(C(=O)Nc2ccccc2N)cc1", "OVCAR-4 ovarian", "FALSE"],
  ["COc1ccc(-c2nc(N)c(C#N)c3c2CCOc2c-3ccc3ccccc23)cc1", "OVCAR-4 ovarian", "FALSE"],
  ["Cc1nc(Sc2nc3ccc([N+](=O)[O-])cc3s2)sc1C", "OVCAR-4 ovarian", "FALSE"],
  ["c1cc[c]([Sn]([O]c2cccc3cccnc23)([O]c2cccc3cccnc23)[c]2ccccc2)cc1", "OVCAR-4 ovarian", "TRUE"],
  ["O=C(CN(/C=C/C(=O)C(F)(F)F)c1ccccc1)c1ccc(Cl)cc1", "OVCAR-4 ovarian", "FALSE"],
  ["Cn1cncc1-c1c(F)cncc1NC(=O)c1c(N)nn2cc(F)cnc12", "OVCAR-4 ovarian", "FALSE"]
]}

Request: Hey, what did the test say about `CN(C)CCCCCNc1c2ccccc2nc2cccc([N+](=O)[O-])c12` ?
Response: TRUE

Request: Hey, what did the test say about `CCOC(=O)C#Cc1c(C(=O)OCC)nnn1[C@@H]1O[C@H](CO)[C@H]2OC3(CCCCC3)O[C@H]21` ?
Response: FALSE

Request: Hey, what did the test say about COc1ccccc1C1C(C#N)=C(N)Oc2cc(O)ccc21 (centres undefined) ?
Response: FALSE

Request: Hey, what did the test say about `CN1CCN(CCCOc2cccc3nc(Nc4ccc(F)c(F)c4)ccc23)CC1` ?
Response: FALSE
